testedTarget: T1, APC6088-AA
T1 chain: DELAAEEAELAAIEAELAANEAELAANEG
assaySummary: two-hybrid library CCmax;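 further: natural log of median RNA to DNA barcode read ratio; higher means stronger binding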
appliedConditions: mean of both orientations
endpoint: interaction score

binder="DEAAALEAKLAANKAELAANEAKLAAIKG [APC2981-AA]" measurement=-1.49
binder="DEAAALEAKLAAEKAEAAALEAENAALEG [APC2724-AA]" measurement=-1.76
binder="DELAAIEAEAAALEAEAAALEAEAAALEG [APC222-AA]" measurement=-1.62
binder="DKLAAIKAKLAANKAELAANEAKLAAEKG [APC1987-AA]" measurement=-1.6
binder="DKAAALKAKAAALKAKNAALKAENAALEG [APC3354-AA]" measurement=-1.77
binder="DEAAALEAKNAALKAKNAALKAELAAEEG [APC2556-AA]" measurement=-1.75
